Where these numbers come from: patent US20260083704A1

Measured EC50, listed per entry.
- SUBJECT_OF_TEST: GST-LXRβ ligand-binding domain (Homo sapiens, UniProt P55055)
- Construct: amino acids 156-461; NP009052
- PROTOCOL_SUMMARY: TR-FRETβ activity assay (NCoA3 coactivator peptide recruitment)
- CONDITION_NOTES: 1 μM 24(S)-25-epoxycholesterol prestimulation
ENDPOINT: EC50

                                   molecule    value_reported
0  N#Cc1cccc(C#N)c1-c1c(-c2cccc(-c3ccc(C(=O)O)cc3)c2)n(S(=O)(=O)c2ccc(C(F)F)cc2)c2ccc(F)cc12          < 100 nM
1  Cc1ccc(S(=O)(=O)n2c(-c3cccc(N4CC(C(=O)O)C4)c3)c(-c3ccsc3C(F)F)c3cc(F)ccc32)cc1    100 to 1000 nM
2  COCc1sccc1-c1c(-c2cccc(N3CC(C(=O)O)C3)c2)n(S(=O)(=O)c2ccc(C)cc2)c2ccc(F)cc12  1000 to 10000 nM
3  N#Cc1sccc1-c1c(-c2cccc(N3CCC(C(=O)O)C3)c2)n(S(=O)(=O)c2ccc(Cl)cc2)c2ccccc12 (stereo not shown)    100 to 1000 nM

###

- PROTOCOL_SUMMARY: Short term HFD mouse model: plasma and liver exposure
- Format: in vivo
- CONDITION_NOTES: HFD mice, three oral doses of 20 mg/kg over two days, 4 h after final dose
- Protocol: The in vivo transcriptional regulation of several LXR target genes by LXR modulators was assessed in mice. For this, C57BL/6J were purchased from Elevage Janvier (Rennes, France) at the age of 8 weeks. After an acclimation period of two weeks, animals were prefed on a high fat diet (HFD) (Ssniff Spezialdiäten GmbH, Germany, Surwit EF D12330 mod, Cat. No. E15771-34), with 60 kcal % from fat plus 1% (w/w) extra cholesterol (Sigma-Aldrich, St. Louis, MO) for 5 days. […]
ENDPOINT: liver/plasma ratio 4 h

>>> print(df.to_string())
                              smiles_record  value_reported
0  N#Cc1cccc(C#N)c1-c1c(-c2cccc(-c3ccc(C(=O)O)cc3Cl)c2)n(S(=O)(=O)c2ccc(C(F)F)cc2)c2ccc(F)cc12  C (30 to ≤100)
1  N#Cc1ccccc1-c1c(-c2cccc(-c3ccc(C(=O)O)cc3Cl)c2)n(S(=O)(=O)c2ccc(C(F)F)cc2)c2ccc(F)cc12  C (30 to ≤100)
2  Cc1ccc(S(=O)(=O)n2c(-c3cccc(-c4ccc(C(=O)O)cc4Cl)c3)c(-c3ccsc3C#N)c3cc(F)ccc32)cc1  C (30 to ≤100)
3  N#Cc1sccc1-c1c(-c2cccc(-c3ccc(C(=O)O)cc3Cl)c2)n(S(=O)(=O)c2ccc(C(F)(F)F)nc2)c2ccc(F)cc12    B (5 to ≤30)
4  O=C(O)c1ccc(-c2cccc(-c3c(-c4ncccc4C(F)(F)F)c4cc(F)ccc4n3S(=O)(=O)c3ccc(C(F)F)cc3)c2)c(Cl)c1    B (5 to ≤30)

###

- SUBJECT_OF_TEST: GST-LXRβ ligand-binding domain (Homo sapiens, UniProt P55055)
- Construct: amino acids 156-461; NP009052
- Sequence (P55055 156-460 limits assumed): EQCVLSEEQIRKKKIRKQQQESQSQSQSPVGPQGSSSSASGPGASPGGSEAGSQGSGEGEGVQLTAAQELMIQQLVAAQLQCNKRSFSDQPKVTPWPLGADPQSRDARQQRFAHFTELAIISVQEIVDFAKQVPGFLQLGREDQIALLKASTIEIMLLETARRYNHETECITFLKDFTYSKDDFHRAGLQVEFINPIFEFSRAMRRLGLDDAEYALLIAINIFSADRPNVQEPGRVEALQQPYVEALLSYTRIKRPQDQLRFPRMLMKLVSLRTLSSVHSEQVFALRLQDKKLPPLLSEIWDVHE
- PROTOCOL_SUMMARY: TR-FRETβ activity assay (NCoA3 coactivator peptide recruitment)
- CONDITION_NOTES: 1 μM 24(S)-25-epoxycholesterol prestimulation
pEC50: −log10 of the molar value.
ENDPOINT: pEC50

In [3]: df
Out[3]:
                                    molecule  endpoint  value_reported
 0  Cc1cccc(S(=O)(=O)n2c(-c3cccc(N4CC(C(=O)O)C4)c3)c(-c3ccsc3C#N)c3cc(F)ccc32)c1 [3/8]     pEC50    5.00 to 6.00
 1  O=S(=O)(c1ccc(Cl)cc1)n1c(-c2cccs2)c(-c2ccsc2Cl)c2ccccc21 [Compound 20]     pEC50    6.00 to 7.00
 2  N#Cc1sccc1-c1c(-c2cccc(-c3ccc(C(=O)O)cc3Cl)c2)n(S(=O)(=O)c2ccc(C(F)F)cc2)c2ccc(F)cc12 [11/17]     pEC50          > 7.00
 3  COC(=O)C(C)(C)N(C)C(=O)C1CN(c2cccc(-c3c(-c4ccsc4C#N)c4cc(F)ccc4n3S(=O)(=O)c3ccc(C)cc3)c2)C1 [32/2]     pEC50    6.00 to 7.00
 4  N#Cc1cccc(C#N)c1-c1c(-c2cccc(-c3ccc(C(=O)O)cc3Cl)c2)n(S(=O)(=O)C2CCC(F)(F)CC2)c2ccc(F)cc12 [11/63]     pEC50    6.00 to 7.00
 5  CC(=O)NS(=O)(=O)c1ccc(-c2cccc(-c3c(-c4c(C#N)cccc4C#N)c4cc(F)ccc4n3S(=O)(=O)c3ccc(C(F)F)cc3)c2)c(Cl)c1 [8/8]     pEC50          > 7.00
 6  N#Cc1sccc1-c1c(-c2cccs2)n(S(=O)(=O)c2cccc3ccccc23)c2ccccc12 [1/27]     pEC50    5.00 to 6.00
 7  N#Cc1ccncc1-c1c(-c2cccs2)n(S(=O)(=O)c2ccc(Cl)cc2)c2ccccc12 [20/2]     pEC50    5.00 to 6.00
 8  N#Cc1ccccc1-c1c(-c2cccc(-c3ccc(C(=O)O)cc3Cl)c2)n(S(=O)(=O)c2ccc(C(F)F)cc2)c2cccnc12 [8/7]     pEC50    6.00 to 7.00
 9  Cc1ccc(S(=O)(=O)n2c(-c3cccc(N4CC(C(=O)O)C4)c3)c(-c3sccc3C#N)c3cc(F)ccc32)cc1 [3/25]     pEC50    5.00 to 6.00
10  CCc1ccc(S(=O)(=O)n2c(-c3cccc(N4CC(C(=O)O)C4)c3)c(-c3ccsc3C#N)c3cc(F)ccc32)cc1 [3/10]     pEC50    6.00 to 7.00
11  Cc1ccc(S(=O)(=O)n2c(-c3cccc(S(=O)(=O)CC(=O)O)c3)c(-c3ccsc3C#N)c3ccccc32)cc1 [3/15]     pEC50    5.00 to 6.00
12  Cc1cccc(C)c1-c1c(-c2cccc(-c3ccc(C(=O)O)cc3Cl)c2)n(S(=O)(=O)c2ccc(C(F)F)cc2)c2ccc(F)cc12 [11/14]     pEC50          > 7.00
13  N#Cc1cccc(C#N)c1-c1c(-c2cccc(C3CC3C(=O)O)c2)n(S(=O)(=O)c2ccc(C(F)F)cc2)c2ccc(F)cc12 (centres unmarked) [3/68]     pEC50    6.00 to 7.00
